Data origin: PubChem BioAssay AID179

test system: CEM cells HIV-1 protection, formazan growth assay; assay: NCI AIDS Antiviral Assay; details: measured here: growth of uninfected CEM cells
Value kind: pIC50
API: returns pIC50 as number; meaning -log10 of concentration in mol/L.

Cc1n[n+](Cc2ccccc2)c2sc(N)nn12 ... 4.39
CN(C)c1ccc(-c2nc3c(=O)n(C)c(=O)n(C)c3nc2-c2ccc(N(C)C)cc2)cc1 ... 3.90
[Cl][Cu][Cl] ... 3.74

[in] Supply measured pIC50 of `CCCCCC/C=C\CCCCCCCCCc1c(O)c(OC)cc(O)c1CN(C)C` in your reply.
[out] 5.62

[in] Supply measured pIC50 of CCCC(=O)OCC1=CCC2c3c(c4ccccc4n3C)CC1N2Cc1ccccc1 (stereo not given) in your reply.
[out] 5.42

[in] Supply measured pIC50 of `CCOC(=O)c1nc2ccc(C(F)(F)F)cc2nc1NCc1ccc(F)cc1` in your reply.
[out] 4.63

[in] Supply measured pIC50 of `O/N=C(/C(Cl)=C(Cl)Cl)C(Cl)Cl` in your reply.
[out] 4.48

[in] Supply measured pIC50 of `BrCc1ccc2ccc3ccc(CBr)nc3c2n1` in your reply.
[out] 5.43

====

tested on: CEM cells HIV-1 protection, formazan growth assay; test: NCI AIDS Antiviral Assay
Value kind: EC50

[O-]c1on[n+]2c1Cc1ccccc1C2 ... > 200 µM
CCOC(=O)C1(C(=O)OCC)C[C@@H](C)[C@@H](O)C1 ... > 200 µM
Clc1ccccc1C(=Nc1ccccc1)C(=Nc1ccccc1)c1ccccc1Cl ... > 1.74 µM
Cc1ccc(-n2c(=S)[nH]c3ccc(C)cc3c2=O)cc1 ... > 25.7 µM
NNC(=O)c1n[nH]nc1C(=O)NN ... > 200 µM

Next molecule, please.
[in] Fill in EC50 for COC(=O)C(Cc1ccccc1)NS(=O)(=O)c1ccc(-c2c3nc(c(-c4ccc(S(=O)(=O)NC(Cc5ccccc5)C(=O)OC)cc4)c4ccc([nH]4)c(-c4ccc(S(=O)(=O)NC(Cc5ccccc5)C(=O)OC)cc4)c4nc(c(-c5ccc(S(=O)(=O)NC(Cc6ccccc6)C(=O)OC)cc5)c5ccc2[nH]5)C=C4)C=C3)cc1 (stereo unspecified) tested with CEM cells HIV-1 protection, formazan growth assay.
[out] > 126 µM

====

tested on: CEM cells HIV-1 protection, formazan growth assay; test: NCI AIDS Antiviral Assay; settings: measured here: growth of uninfected CEM cells
pIC50: −log10 of the molar value.
Quick rule for you: pIC50 at 4 or higher means Yes, lower means No.

CC1(C)C=C(S(=O)(=O)c2ccccc2)Oc2ccccc2O1 ... No
CC1(C)SC(CCCCCCCCCCCNC2=NCCCCCCCCCCC2)=N[C@@H]1C(=O)O ... Yes

[in] Hi, just wondering whether `CN1C[C@@H]2CC(=O)CC[C@@H]2C[C@H]1C#N` shows pIC50 of 4 or higher.
[out] No

[in] Hi, just wondering whether `CN(C)CC(CO)(CN(C)C)CN(C)C` shows pIC50 of 4 or higher.
[out] No

====

test system: CEM cells HIV-1 protection, formazan growth assay; assay: NCI AIDS Antiviral Assay
pEC50: −log10 of the molar value.
Quick reference: pEC50 of the listed items.

C=CC(=O)NC(O)(C(=O)OCC)C(F)(F)F (configuration not stated) ... < 3.70

[in] Supply measured pEC50 of `CCN(CC)C(=O)SCCSC(=O)N(CC)CC` in your reply.
[out] < 4.00

[in] Supply measured pEC50 of Oc1cccc(C(O)CNC2CCCCC2)c1 (configuration not stated) in your reply.
[out] < 3.70

[in] Supply measured pEC50 of `CCOC(=O)C(=O)Nc1ccccc1OCC` in your reply.
[out] < 3.68

====

Quick reference: pIC50 of the listed items.
test system: CEM cells HIV-1 protection, formazan growth assay; assay: NCI AIDS Antiviral Assay; details: measured here: growth of uninfected CEM cells
API: returns pIC50 as number; meaning -log10 of concentration in mol/L.

Solved cases (4 shown):
Cc1cccc(N=Nc2c(C)nn(C(=O)CC(=O)Nc3ccc(Cl)cc3)c2C)c1 ... 3.91
O=C(/C=C/c1ccc(Br)cc1)c1ccccc1 ... 5.02
CC(C)=CCOc1cc(NC(=S)c2ccsc2C)ccc1Cl ... 4.80
CC(C)(C)OC(=O)N(CCCCNCc1ccc2ccccc2c1)CCCNCc1ccc2ccccc2c1 ... 5.98

[in] Supply measured pIC50 of `O=C(/C=C/c1ccc(O)c(O)c1)OCc1ccccc1` in your reply.
[out] 4.95

[in] Supply measured pIC50 of `O=C(NC12CC3CC(CC(C3)C1)C2)C(=O)c1c[nH]c2ccc([N+](=O)[O-])cc12` in your reply.
[out] 4.52

====

tested on: CEM cells HIV-1 protection, formazan growth assay; experiment: NCI AIDS Antiviral Assay
Value kind: EC50

Solved cases (4 shown):
O=S(=O)(NCCSSCCNS(=O)(=O)c1ccc2ccccc2c1)c1ccc2ccccc2c1 ... > 200 µM
COc1cc2c3c(c1)ncn3C(=O)CCS2 ... > 200 µM
CC(=O)/C(C)=N/NC(=O)c1ccccc1O ... > 4.79 µM
CC(C)C(N)S(=O)(=O)O (configuration not stated) ... > 200 µM

[in] Supply measured EC50 of N=C(N)C1CN(CCc2cnc[nH]2)C(=O)NC1=O (configuration not stated) in your reply.
[out] > 200 µM

[in] Supply measured EC50 of Cc1ccc(S(=O)(=O)[N-]C2C(=O)c3ccccc3C(=O)C2[n+]2cccc(C(N)=O)c2)cc1 (configuration not stated) in your reply.
[out] > 200 µM

====

Test system: CEM cells HIV-1 protection, formazan growth assay
Experiment: NCI AIDS Antiviral Assay
Experimental: The ability of compounds to protect human CEM cells from HIV-1 infection is measured as a screen for new compounds capable of inhibiting the HIV virus. Five concentrations of drug were tested on uninfected and infected cells and cell growth was measured using a soluble formazan assay. […] Compounds that provided at least 50% protection were retested. Compounds that provided at least 50% protection on retest were listed as moderately active. […]
pEC50: −log10 of the molar value.
Value kind: pEC50

Solved cases (5 shown):
Cc1ncc(C(N)=O)c2c1OC(C)(C)OC2 ... < 3.70
C[C@H]1CN[C@@H]2[C@@H](C)[C@H]3[C@@H](C[C@H]4[C@@H]5CC[C@H]6C[C@@H](N)CC[C@]6(C)[C@H]5CC[C@]34C)O[C@@]2(O)C1 ... < 4.42
O=C(O)C12C3C4C1C1C2C3C41I (stereo not drawn) ... < 3.32
CC(=O)OCC(C)C1=C(O)C(=O)C2(C)C/C=C(/C)CC/C=C(\C)CCC(O)C(C)CCC12 (stereo not drawn) ... < 3.70
Cc1cn(C2CC(N(O)C3C4CC5CC(C4)CC3C5)C(CO)O2)c(=O)[nH]c1=O (stereo not drawn) ... < 3.70

[in] Supply measured pEC50 of OCC(CCc1ccccc1I)C1=CCC2(CC1)OCCO2 (stereo not drawn) in your reply.
[out] < 3.70

[in] Supply measured pEC50 of `CCOC(=O)/C(=C\c1ccc(Cl)cc1)[Se]c1ccccc1` in your reply.
[out] < 4.01

[in] Supply measured pEC50 of `O=C(Nc1ccc(S(=O)(=O)c2ccc(NS(=O)(=O)Cc3ccccc3[N+](=O)[O-])cc2)cc1)c1ccccc1SSc1ccccc1C(=O)Nc1ccc(S(=O)(=O)c2ccc(NS(=O)(=O)Cc3ccccc3[N+](=O)[O-])cc2)cc1` in your reply.
[out] 4.55

====

test system: CEM cells HIV-1 protection, formazan growth assay; test: NCI AIDS Antiviral Assay;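 active = compounds giving half or more protection of infected cells from virus-caused growth loss, again on retest; inactive = the rest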
Hello, when you answer, please use one of the following outcomes: active, inactive

Here's what some known entries look like.
CC1(C)CC(=O)C2=C(C1)Nc1ccc(Cl)cc1NC2c1cccc([N+](=O)[O-])c1 (stereo not given) ... inactive
O=C(O)CN1CCN(CC(=O)O)CCN(CC(=O)O)CCN(CC(=O)O)CC1 ... inactive
O=C(Nc1ccc(Cl)cc1)C(=O)C1=C(O)c2ccccc2OC1 ... inactive
COC(=O)C1(C)CCc2c(OC)ccc(OC)c2C1=O (stereo not given) ... active
COc1ccc2c(c1)CCC1=C2CC(=O)N2CCCCN12 ... inactive

[in] Outcome? COc1cccc(C2N3CCCCC3[C@@H]3c4[nH]c5ccccc5c4CCN23)c1OC (stereo not given in full)
[out] inactive

[in] Outcome? CCCc1cc(=O)oc2c3c(c4c(c12)OC(C)(C)CC4)OC(C)[C@H](C)[C@@H]3O (stereo not given in full)
[out] active

[in] Outcome? `O=C(O)c1ccc([N+](=O)[O-])cc1S(=O)(=O)O`
[out] inactive

[in] Outcome? `O=c1ccc2nc3cc(Cl)ccc3sc-2c1`
[out] inactive

[in] Outcome? NC(=O)NC1C(C(=O)O)N(Cc2ccccc2)C(=O)N1Cc1ccccc1 (stereo not given)
[out] inactive

[in] Outcome? `Cc1noc(NS(=O)(=O)c2ccc(NC(=O)c3ccc4[nH]c5ccccc5c(=O)c4c3)cc2)c1C`
[out] inactive

[in] Outcome? `CC(=O)/C=C1/C(=O)C(CC(C)C)=C1CC(C)C`
[out] active

[in] Outcome? `CC(=O)/C=C(/C=N/O)c1ccccc1`
[out] inactive

[in] Outcome? COC(=O)C1=C(C(=O)OC)P2(C)(C)OC(c3ccccc3)CN2C1(c1ccccc1)c1ccccc1 (stereo not given)
[out] inactive

[in] Outcome? `CC1(C)SC(CCCCCCCCCCCNC2=NCCCCCCCCCCC2)=N[C@@H]1C(=O)O`
[out] inactive

[in] Outcome? Cc1cc(OCC(O)CO)ccc1-c1ccccc1 (stereo not given)
[out] inactive

[in] Outcome? `c1ccc2c(c1)n1c(N3CCCC3)[n+]3ccccc3c1c1c3cccc[n+]3c(N3CCCC3)n21`
[out] active

[in] Outcome? `O=S(=O)(SS(=O)(=O)c1ccccc1)c1ccccc1`
[out] inactive

[in] Outcome? `O=C1CCCC(=O)C1=C(O)CCCCCCCCCCc1ccccc1`
[out] inactive

[in] Outcome? `O=c1oc2ccc([N+](=O)[O-])cc2cc1Br`
[out] inactive

[in] Outcome? `CC(C)(C)c1cc2c(O)c(c1)COCc1cc(C(C)(C)C)cc(c1O)COCc1cc(C(C)(C)C)cc(c1O)COC2`
[out] inactive

[in] Outcome? CON1C(=O)C2(CCCCC2)C(=O)C12C=CC(C)CC2 (stereo not given)
[out] inactive

[in] Outcome? `Nc1nc(Cl)nc(Cl)n1`
[out] inactive

[in] Outcome? Cc1c(C2Cc3ccccc3N2C(=O)/C=C\C(=O)O)c2ccccc2n1C (stereo not given)
[out] inactive

[in] Outcome? Cc1ccc(S(=O)(=O)ON/N=C2/C3OC3[C@@H]3CCCC[C@H]23)cc1 (stereo not given in full)
[out] inactive

[in] Outcome? `Cc1ccc(S(=O)(=O)N2/C(=C/c3ccccc3)C(=O)c3ccccc3-c3ccccc32)cc1`
[out] inactive

[in] Outcome? `Cc1c(C)c2cc3c(=O)ccoc3c(C)c2oc1=O`
[out] inactive
